SYSTEM NAME: recombinant HLA-DR401 (HLA-DRA1*01:01, HLA-DRB1*04:01) (Homo sapiens, UniProt P01903+P01911, A100K/A169T/F76Y/I96L/K127E/L162R/M171V/N62H/P40V/Q125Y/R42H/S133A/S149N/S66Y/V115G/V209L/W38E)
Construct: poly-histidine (C); made in house; host or cells: High Five (Hi5) insect cells, baculovirus (pAcGP67a)
METHOD NOTES: biochemical
Format: binding
ASSAY CONTEXT: read-out: Measured IC50
Ends that are not written are not given here.
Overview of reported IC50 across a group of sequences:

// known answers, use as guide
YSIEVLLVLDDSVVRFHGKE ... > 50 µM
VSSFQDILLRMSKMQ ... > 50 µM
AAGFPGEQGPKGEPG ... > 50 µM

With those in mind, consider the next sequence.
Dear colleague, please send me the reported IC50 for EVKYCTFSKDRSKPIPGMTL when you can. > 50 µM
